Assay Remarks: NCI Yeast Anticancer Drug Screen. Data for the rad50 strain (AID 155);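 note: 0% = growth of vehicle-only cultures of the same strain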
Stated Conditions: S. cerevisiae rad50 strain growth inhibition; at 50.0 µM (retest, dose inferred, filed as 5.0)
This is part of a sample that, as a whole, favours compounds with a hit. Of some 79,000 tested, about 15% had one in any assay. Activity calls are given as the source filed them. Cut-off read from the data, not from the text of the source: active = growth inhibition above about 70%; inactive = the rest.
Your answer must be one of the following: active, inactive

Check out these entries, answers already filled in.
Compound	Assigned Label
Cc1ccc(S(=O)(=O)N=S(=O)(CCCl)CCCl)cc1	active
CCCC(=O)O.CCCC(=O)O.CCCC(=O)O.CCCC(=O)O.[Rh].[Rh]	inactive

Data request: Given O=[N+]([O-])O.c1ccc([As+](c2ccccc2)(c2ccccc2)c2ccccc2)cc1 , state the outcome it received in this test.
Data returned: active

Data request: Given [Cl][Hg][c]1ccc(Cl)s1 , state the outcome it received in this test.
Data returned: active

Data request: Given CCC1(O)C(=O)OCc2c1cc1n(c2=O)Cc2cc3cc(C)ccc3nc2-1 (stereo not given) , state the outcome it received in this test.
Data returned: active

Data request: Given C[CH2][Sn]1([CH2]C)[O]C(=O)CC(=O)[O]1 , state the outcome it received in this test.
Data returned: inactive

Data request: Given CC(C)[CH2][Sn](=[O])[c]1ccccc1 , state the outcome it received in this test.
Data returned: inactive

Data request: Given CC1c2c(n(C)c3ccccc23)C2CCC3(CO3)C1N2Cc1ccccc1 (stereo not given) , state the outcome it received in this test.
Data returned: active

Data request: Given C[C@@H](O)[C@H]1/C=C/C=C\C(=O)O[C@@H]2C[C@H]3O[C@@H]4[C@@H]5OC5(C)CCC4(COC(=O)[C@H]4O[C@]4(C)[C@@H](O)CO1)[C@]2(C)[C@]31CO1 (stereo not given in full) , state the outcome it received in this test.
Data returned: active

Data request: Given Nc1nc(N)c(-c2ccc(Cl)c(Cl)c2)c(COc2cccc(CNS(=O)(=O)c3cccc(S(=O)(=O)F)c3)c2)n1 , state the outcome it received in this test.
Data returned: active

* * *

Assay Remarks: NCI Yeast Anticancer Drug Screen. Data for the rad50 strain (AID 155);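 note: 0% = growth of vehicle-only cultures of the same strain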
Stated Conditions: S. cerevisiae rad50 strain growth inhibition; at 50.0 µM; active compounds read high
About 79,000 compounds went through this panel and 15% of them were active in at least one assay; those are over-represented in the sample as a whole.
Consider the following molecules; for each one, report its growth inhibition.
Numbers only, in %.

Example results:
Molecule	Value Reported
CCOP(=O)(Oc1ccc([N+](=O)[O-])cc1)c1cccc(Br)c1 (centres undefined)	41.5
O=C(OCC1CCCN2CCCCC12)c1cccnc1 (centres undefined)	7.7

// for each molecule below, give its growth inhibition
1. COc1cc(/C=C(/C)[N+](=O)[O-])c([N+](=O)[O-])cc1OC
2. NC(Cc1cccc(F)c1)c1nn[nH]n1 (centres undefined)

Data returned:
1: 88.3; 2: -7.6

// for each molecule below, give its growth inhibition
1. ClCC[Se](Cl)(Cl)c1ccccc1
2. O=[N+]([O-])c1ccc(Cl)c([N+](=O)[O-])c1

Data returned:
1. 42.9
2. 99.2

* * *

Assay Remarks: NCI Yeast Anticancer Drug Screen. Data for the bub3 strain (AID 167)
Stated Conditions: S. cerevisiae bub3 mutant strain, at 50.0 µM
About 79,000 compounds went through this panel and 15% of them were active in at least one assay; those are over-represented in the sample as a whole. Activity calls are given as the source filed them. No stated cut-off is given here; in the data, active means growth inhibition above about 70%; inactive means the rest.
Your answer must be one of the following: active, inactive

Compound	Assigned Label
CC1CCCC[N-]1.CC1CCCC[N-]1.N#C[S-].N#C[S-].[Cd] (stereo not given)	inactive

Data request: Given O=[P+](O)O[P+](=O)O.O=[P+](O)O[P+](=O)O.O=[P+](O)O[P+](=O)O.O=[P+](O)O[P+](=O)O.[Cl][Pt].[Cl][Pt] , state the outcome it received in this test.
Data returned: inactive

Data request: Given O=[N+]([O-])/C=C/c1ccc(Cl)cc1[N+](=O)[O-] , state the outcome it received in this test.
Data returned: active

Data request: Given COc1ccc(C=O)cc1 , state the outcome it received in this test.
Data returned: inactive

Data request: Given C[CH2][Pb]([CH2]C)([CH2]C)[n]1ccnc1 , state the outcome it received in this test.
Data returned: inactive
